- System: panel of nearly 500 cancer cell lines
- Measurement Notes: Cancer Cell Line Encyclopedia profiling, 3-day CellTiter-Glo
- Format: cell-based
- Experimental Parameters: Homo sapiens, G-361
pIC50: −log10 of the molar value.
Parameter Measured: pIC50

Record for CN(C)C(=O)c1cc2cnc(Nc3ccc(N4CCNCC4)cn3)nc2n1C1CCCC1 [Ribociclib] under target or system panel of nearly 500 cancer cell lines: pIC50 reported as < 5.10

---

- Tested on: panel of nearly 500 cancer cell lines
- Measurement Notes: Cancer Cell Line Encyclopedia profiling, 3-day CellTiter-Glo
- Type: cell-based
- Experimental Parameters: hcc4006 (lung); read-out: IC50
Parameter Measured: IC50

Per the record, CC(=O)c1c(C)c2cnc(Nc3ccc(N4CCNCC4)cn3)nc2n(C2CCCC2)c1=O has IC50 of > 8 µM

---

- Test system: panel of nearly 500 cancer cell lines
- Measurement Notes: Cancer Cell Line Encyclopedia profiling, 3-day CellTiter-Glo
- Assay type: cell-based
- Experimental Parameters: cal78 (bone); read-out: IC50
Parameter Measured: IC50

Per the record, CC(=O)c1c(C)c2cnc(Nc3ccc(N4CCNCC4)cn3)nc2n(C2CCCC2)c1=O has IC50 of > 8 µM

---

- System: panel of nearly 500 cancer cell lines
- Measurement Notes: Cancer Cell Line Encyclopedia profiling, 3-day CellTiter-Glo
- Type: cell-based
- Experimental Parameters: shp77 (lung); read-out: IC50
Parameter Measured: IC50

The compound listed as CC(=O)c1c(C)c2cnc(Nc3ccc(N4CCNCC4)cn3)nc2n(C2CCCC2)c1=O has a reported IC50 of > 8 µM

---

- System: panel of nearly 500 cancer cell lines
- Measurement Notes: Cancer Cell Line Encyclopedia profiling, 3-day CellTiter-Glo
- Assay type: cell-based
- Experimental Parameters: efo21 (ovary); read-out: IC50
Parameter Measured: IC50

The molecule listed as CC(=O)c1c(C)c2cnc(Nc3ccc(N4CCNCC4)cn3)nc2n(C2CCCC2)c1=O [Palbociblib] has a reported IC50 of > 8 µM

---

- Test system: panel of nearly 500 cancer cell lines
- Measurement Notes: Cancer Cell Line Encyclopedia profiling, 3-day CellTiter-Glo
- Format: cell-based
- Experimental Parameters: Homo sapiens, KYSE-180
Parameter Measured: IC50

# IC50 (compound: CN(C)C(=O)c1cc2cnc(Nc3ccc(N4CCNCC4)cn3)nc2n1C1CCCC1 [Ribociclib] ) is > 8 µM

---

- Test system: panel of nearly 500 cancer cell lines
- Measurement Notes: Cancer Cell Line Encyclopedia profiling, 3-day CellTiter-Glo
- Format: cell-based
- Experimental Parameters: Homo sapiens, NCI-H2170
Parameter Measured: IC50

Input CN(C)C(=O)c1cc2cnc(Nc3ccc(N4CCNCC4)cn3)nc2n1C1CCCC1 [Ribociclib] . Output IC50: > 8 µM

---

- System: panel of nearly 500 cancer cell lines
- Measurement Notes: Cancer Cell Line Encyclopedia profiling, 3-day CellTiter-Glo
- Assay type: cell-based
- Experimental Parameters: Homo sapiens, DMS-114
Parameter Measured: IC50

For record CN(C)C(=O)c1cc2cnc(Nc3ccc(N4CCNCC4)cn3)nc2n1C1CCCC1 [Ribociclib] the listed IC50 is > 8 µM

---

- Test system: panel of nearly 500 cancer cell lines
- Measurement Notes: Cancer Cell Line Encyclopedia profiling, 3-day CellTiter-Glo
- Format: cell-based
- Experimental Parameters: efm19 (breast); read-out: IC50
Parameter Measured: IC50

Looking up CC(=O)c1c(C)c2cnc(Nc3ccc(N4CCNCC4)cn3)nc2n(C2CCCC2)c1=O [Palbociblib] , I see its IC50 listed as > 8 µM

---

- System: panel of nearly 500 cancer cell lines
- Measurement Notes: Cancer Cell Line Encyclopedia profiling, 3-day CellTiter-Glo
- Type: cell-based
- Experimental Parameters: calu3 (lung); read-out: IC50
pIC50: −log10 of the molar value.
Parameter Measured: pIC50

What the record says about CC(=O)c1c(C)c2cnc(Nc3ccc(N4CCNCC4)cn3)nc2n(C2CCCC2)c1=O : pIC50 is < 5.10

---

- Tested on: panel of nearly 500 cancer cell lines
- Measurement Notes: Cancer Cell Line Encyclopedia profiling, 3-day CellTiter-Glo
- Format: cell-based
- Experimental Parameters: colo205 (large_intestine); read-out: IC50
Parameter Measured: IC50 (µM)
# output: bare number, implied unit µM

IC50 in this record for CC(=O)c1c(C)c2cnc(Nc3ccc(N4CCNCC4)cn3)nc2n(C2CCCC2)c1=O [Palbociblib] : 7.19

---

- System: panel of nearly 500 cancer cell lines
- Measurement Notes: Cancer Cell Line Encyclopedia profiling, 3-day CellTiter-Glo
- Type: cell-based
- Experimental Parameters: Homo sapiens, L-428
Parameter Measured: pEC50
Keep in mind that pEC50 stands for -log10 of concentration in molar terms.

Known value: panel of nearly 500 cancer cell lines pEC50 of the compound CN(C)C(=O)c1cc2cnc(Nc3ccc(N4CCNCC4)cn3)nc2n1C1CCCC1 [Ribociclib] equals 5.69

---

- Tested on: panel of nearly 500 cancer cell lines
- Measurement Notes: Cancer Cell Line Encyclopedia profiling, 3-day CellTiter-Glo
- Format: cell-based
- Experimental Parameters: Homo sapiens, SNU1
pIC50: −log10 of the molar value.
Parameter Measured: pIC50

Record summary for CN(C)C(=O)c1cc2cnc(Nc3ccc(N4CCNCC4)cn3)nc2n1C1CCCC1 : reported pIC50 = < 5.10

---

- Test system: panel of nearly 500 cancer cell lines
- Measurement Notes: Cancer Cell Line Encyclopedia profiling, 3-day CellTiter-Glo
- Type: cell-based
- Experimental Parameters: Homo sapiens, LN-18
pIC50: −log10 of the molar value.
Parameter Measured: pIC50

Kindly note the recorded pIC50 for CN(C)C(=O)c1cc2cnc(Nc3ccc(N4CCNCC4)cn3)nc2n1C1CCCC1 [Ribociclib] , which is < 5.10

---

- Test system: panel of nearly 500 cancer cell lines
- Measurement Notes: Cancer Cell Line Encyclopedia profiling, 3-day CellTiter-Glo
- Assay type: cell-based
- Experimental Parameters: miapaca2 (pancreas); read-out: IC50
Parameter Measured: IC50

What the record says about CC(=O)c1c(C)c2cnc(Nc3ccc(N4CCNCC4)cn3)nc2n(C2CCCC2)c1=O [Palbociblib] : IC50 is > 8 µM

---

- Test system: panel of nearly 500 cancer cell lines
- Measurement Notes: Cancer Cell Line Encyclopedia profiling, 3-day CellTiter-Glo
- Type: cell-based
- Experimental Parameters: toledo (haematopoietic_and_lymphoid_tissue); read-out: IC50
Parameter Measured: IC50

So, CC(=O)c1c(C)c2cnc(Nc3ccc(N4CCNCC4)cn3)nc2n(C2CCCC2)c1=O ? Its IC50 was > 8 µM

---

- System: panel of nearly 500 cancer cell lines
- Measurement Notes: Cancer Cell Line Encyclopedia profiling, 3-day CellTiter-Glo
- Assay type: cell-based
- Experimental Parameters: Homo sapiens, C2BBe1
Parameter Measured: pEC50
Formally, pEC50 is defined as -log10 of the concentration c, with c in mol/L.

pEC50 measured on CC(=O)c1c(C)c2cnc(Nc3ccc(N4CCNCC4)cn3)nc2n(C2CCCC2)c1=O [Palbociclib, reference compound] = 5.76

---

- System: panel of nearly 500 cancer cell lines
- Measurement Notes: Cancer Cell Line Encyclopedia profiling, 3-day CellTiter-Glo
- Type: cell-based
- Experimental Parameters: Homo sapiens, DOV13
Parameter Measured: IC50

panel of nearly 500 cancer cell lines data for CN(C)C(=O)c1cc2cnc(Nc3ccc(N4CCNCC4)cn3)nc2n1C1CCCC1 ; its IC50: > 8 µM

---

- Test system: panel of nearly 500 cancer cell lines
- Measurement Notes: Cancer Cell Line Encyclopedia profiling, 3-day CellTiter-Glo
- Assay type: cell-based
- Experimental Parameters: Homo sapiens, 8-MG-BA
pIC50: −log10 of the molar value.
Parameter Measured: pIC50

Lab note: CN(C)C(=O)c1cc2cnc(Nc3ccc(N4CCNCC4)cn3)nc2n1C1CCCC1 gave pIC50 of < 5.10

---

- System: panel of nearly 500 cancer cell lines
- Measurement Notes: Cancer Cell Line Encyclopedia profiling, 3-day CellTiter-Glo
- Type: cell-based
- Experimental Parameters: mdamb453 (breast); read-out: IC50
Parameter Measured: IC50

Field IC50 (entry CC(=O)c1c(C)c2cnc(Nc3ccc(N4CCNCC4)cn3)nc2n(C2CCCC2)c1=O ) reads > 8 µM

---

- System: panel of nearly 500 cancer cell lines
- Measurement Notes: Cancer Cell Line Encyclopedia profiling, 3-day CellTiter-Glo
- Assay type: cell-based
- Experimental Parameters: Homo sapiens, COLO 205
Measured pEC50 of individual entries
Kindly note that pEC50 refers to -log10 of the concentration in mol/L and answer with the value alone.

CN(C)C(=O)c1cc2cnc(Nc3ccc(N4CCNCC4)cn3)nc2n1C1CCCC1 [Ribociclib]    5.91

Okay, now this compound:
The reported value for CC(=O)c1c(C)c2cnc(Nc3ccc(N4CCNCC4)cn3)nc2n(C2CCCC2)c1=O [Palbociclib, reference compound] in terms of pEC50 is 5.77

---

- Test system: NCI-H23
- Measurement Notes: cells
- Format: cell-based
- Experimental Parameters: Homo sapiens, NCI-H23, 72 h
pIC50: −log10 of the molar value.
Parameter Measured: pIC50

// CN(C)C(=O)c1cc2cnc(Nc3ccc(N4CCNCC4)cn3)nc2n1C1CCCC1 : pIC50 value = < 5.00
